Test: Single 60 mg dose of Radicut edaravone solution, oral and i.v. infusion, plasma pharmacokinetics in dogs
Type: in vivo
Settings: male, beagle, dog, oral administration 60 mg, 1 hrs
measured_attribute: concentration at 1 h (ng/mL)
Unit ng/mL implied. Number only.

Exercise: Given CC1=NN(c2ccccc2)C(=O)C1 , respond with its concentration at 1 h.
Solution: 84

---

Assay: Single 60 mg dose of Radicut edaravone solution, oral and i.v. infusion, plasma pharmacokinetics in dogs
Type: in vivo
Conditions: male, beagle, iv, dog, i.v. infusion 60 mg (15 min), 8 hrs
measured_attribute: concentration at 8 h (ng/mL)
Unit ng/mL implied. Number only.

Exercise: Given CC1=NN(c2ccccc2)C(=O)C1 , respond with its concentration at 8 h.
Solution: 6

---

Test: Single dose, randomized, two-period cross-over study, oral solution 140 mg vs i.v. 60 mg, plasma pharmacokinetics
Type: in vivo
Details: both sexes, human, plasma, oral, 140 mg, oral aqueous solution 140 mg compared to i.v. infusion 60 mg, read-out: systemic / absolute bioavailability (Fabs)
measured_attribute: bioavailability

Exercise: Given CC1=NN(c2ccccc2)C(=O)C1 [edaravone, 3-methyl-1-phenyl-2-pyrazolin-5-one] , respond with its bioavailability.
Solution: ~80%

---

Assay: Single 60 mg dose of Radicut edaravone solution, oral and i.v. infusion, plasma pharmacokinetics in dogs
Format: in vivo
Conditions: male, beagle, dog, oral administration 60 mg, 2 hrs
measured_attribute: concentration at 2 h (ng/mL)
Unit ng/mL implied. Number only.

Exercise: Given CC1=NN(c2ccccc2)C(=O)C1 [edaravone, 3-methyl-1-phenyl-2-pyrazolin-5-one] , respond with its concentration at 2 h.
Solution: 36

---

Experiment: Single 60 mg dose of Radicut edaravone solution, oral and i.v. infusion, plasma pharmacokinetics in dogs
Format: in vivo
Settings: male, beagle, dog, oral administration 60 mg, 0.5 hrs
measured_attribute: concentration at 0.5 h (ng/mL)
Unit ng/mL implied. Number only.

Exercise: Given CC1=NN(c2ccccc2)C(=O)C1 , respond with its concentration at 0.5 h.
Solution: 185

---

Assay: Single dose, randomized, two-period cross-over study, oral solution 140 mg vs i.v. 60 mg, plasma pharmacokinetics
Type: in vivo
Conditions: both sexes, plasma, iv; human, i.v. infusion (60 mg, 60 minutes), 1 hrs
measured_attribute: concentration at 1 h

Exercise: Given CC1=NN(c2ccccc2)C(=O)C1 , respond with its concentration at 1 h.
Solution: 990 ng/mL

---

Assay: Single dose, randomized, two-period cross-over study, oral solution 140 mg vs i.v. 60 mg, plasma pharmacokinetics
Assay type: in vivo
Conditions: both sexes, plasma, iv; human, i.v. infusion (60 mg, 60 minutes), 10 hrs
measured_attribute: concentration at 10 h (ng/mL)
Unit ng/mL implied. Number only.

Exercise: Given CC1=NN(c2ccccc2)C(=O)C1 , respond with its concentration at 10 h.
Solution: 5

---

Experiment: Single dose, randomized, two-period cross-over study, oral solution 140 mg vs i.v. 60 mg, plasma pharmacokinetics
Assay type: in vivo
Settings: both sexes, plasma, iv; human, i.v. infusion 60 mg (60 minutes)
measured_attribute: Cmax (ng/mL)
Unit ng/mL implied. Number only.

Exercise: Given CC1=NN(c2ccccc2)C(=O)C1 , respond with its Cmax.
Solution: 1030

---

Test: Single 60 mg dose of Radicut edaravone solution, oral and i.v. infusion, plasma pharmacokinetics in dogs
Format: in vivo
Conditions: male, beagle, iv, dog, i.v. infusion 60 mg (15 min), 0.25 hrs
measured_attribute: concentration at […] (ng/mL)
Unit ng/mL implied. Number only.

Exercise: Given CC1=NN(c2ccccc2)C(=O)C1 , respond with its concentration at […].
Solution: 4380

---

Assay: Single 60 mg dose of Radicut edaravone solution, oral and i.v. infusion, plasma pharmacokinetics in dogs
Format: in vivo
Conditions: male, beagle, dog, oral administration 60 mg, 0.17 hrs
measured_attribute: concentration at 0.17 h (ng/mL)
Unit ng/mL implied. Number only.

Exercise: Given CC1=NN(c2ccccc2)C(=O)C1 [edaravone, 3-methyl-1-phenyl-2-pyrazolin-5-one] , respond with its concentration at 0.17 h.
Solution: 994

---

Test: Single dose, randomized, two-period cross-over study, oral solution 140 mg vs i.v. 60 mg, plasma pharmacokinetics
Format: in vivo
Details: both sexes, plasma; human, oral administration (140 mg), 4 hrs
measured_attribute: concentration at 4 h

Exercise: Given CC1=NN(c2ccccc2)C(=O)C1 , respond with its concentration at 4 h.
Solution: 68 ng/mL

---

Assay: Single dose, randomized, two-period cross-over study, oral solution 140 mg vs i.v. 60 mg, plasma pharmacokinetics
Type: in vivo
Settings: both sexes, plasma; human, oral administration 140 mg
measured_attribute: AUC(0-t) (ng·h/mL)
Unit ng·h/mL implied. Number only.

Exercise: Given CC1=NN(c2ccccc2)C(=O)C1 , respond with its AUC(0-t).
Solution: 2390

---

Assay: Single dose, randomized, two-period cross-over study, oral solution 140 mg vs i.v. 60 mg, plasma pharmacokinetics
Assay type: in vivo
Details: both sexes, plasma; human, oral administration (140 mg), 6 hrs
measured_attribute: concentration at 6 h (ng/mL)
Unit ng/mL implied. Number only.

Exercise: Given CC1=NN(c2ccccc2)C(=O)C1 , respond with its concentration at 6 h.
Solution: 24
